Values compiled from the supplement of paper PMC7866885.

test system: Streptococcus suis HE06; test: percent growth relative to DMSO control; higher = less growth inhibition; settings: 10 µM; incubation time 18 h
percent growth: recorded values
Provide the measurement as a number trailed by its unit.

For orientation, consider the following solved cases.
Using the record for c1ccc(Oc2ccc(-c3cc(CN4CCOCC4)[nH]n3)cc2)cc1 , report its percent growth.
90.8%

Please look up its percent growth: Cc1ncc(-c2ccnc(Nc3ccc(S(C)(=O)=O)cc3)n2)n1C(C)C
89.7%

Would you mind telling me what percent growth value was observed for CNC(=O)c1nn(C)c2c1C(C)(C)Cc1cnc(Nc3ccc(N4CCN(C)CC4)cc3)nc1-2 ?
88.7%

Continuing:
May I ask what percent growth has been recorded for Nc1ncc(-c2cn[nH]c2)cc1-c1nc2cc(Cl)cnc2[nH]1 ?
90.8%

Which percent growth value is on record for COc1ccc2nc(C)cc(OCC(=O)Nc3ccccc3OC)c2c1 ?
89.9%

Looking for the measured percent growth of CCOc1ccccc1C(=O)Nc1cccc(-c2nc3ncccn3c2C)c1 , can you help?
88.1%

====

tested on: Streptococcus suis HE06; experiment: percent growth relative to DMSO control; higher = less growth inhibition; details: 10 µM; incubation time 18 h
measure: percent growth (%)
Give the number; % is assumed, so skip it.

Consider the following illustrative entries.
I would be grateful if you could share the reported percent growth for OCc1ccc(-c2cncc(Nc3cccc(Cl)c3)c2)cc1 .
88

Suppose we examine the compound CCc1ccc([C@@H]2C[C@H](C(F)(F)F)n3ncc(C(=O)NCc4ccc(OC)cc4)c3N2)cc1 ; what percent growth value has been reported?
92.3

Which percent growth value belongs to O=C(Nc1ccc2c(c1)B(O)OC2)c1ccccc1C(F)(F)F ?
88.2

Then there is this compound:
Query: percent growth; subject: CC(C)(C)OC(=O)N1CCN(c2nccc(-c3ccc(-c4ccc(Cl)cc4)s3)n2)CC1
88.2
